Attribution: paper PMC9516332

target: panel of 255 wild-type kinases (Homo sapiens); experiment: Kinase panel profiling at 1 µmol/L (MSA or IMAP), percentage inhibition; type: biochemical; details: p38α; 1 µmol/L single concentration; read-out: %-inhibition, p38α
inhibition at 1 µM reference
Answer with a number only, understood to be in %.

[[record]]
smiles = "Cn1cc(-c2cc3c(N4CCN(c5ncc([C@@](C)(N)c6ccc(F)cc6)cn5)CC4)ncnn3c2)cn1"
tested_system = "panel of 255 wild-type kinases (Homo sapiens)"
measured_value = 0.843

[[record]]
smiles = "COc1ccc(CN2C3CC2CN(c2ccc(-c4cc(OCC(C)(C)O)cn5ncc(C#N)c45)cn2)C3)cn1"
tested_system = "panel of 255 wild-type kinases (Homo sapiens)"
measured_value = -0.132


Kindly consider the entry below.
## Input Which measured inhibition at 1 µM belongs to FC(F)(F)c1ccc(CNc2ccc(Cc3c[nH]c4ncc(Cl)cc34)cn2)cn1 , tested on panel of 255 wild-type kinases (Homo sapiens)?
## Output 0.932

* * *

target: panel of 255 wild-type kinases (Homo sapiens); assay: Kinase panel profiling at 1 µmol/L (MSA or IMAP), percentage inhibition; assay type: biochemical; conditions: BLK kinase assay; 1 µmol/L single concentration; read-out: %-inhibition BLK
inhibition at 1 µM reference
Answer with a number only, understood to be in %.

Here's what some known entries look like.
[[record]]
compound = "CCc1nc(C(N)=O)c(Nc2ccc(N3CCC(N4CCN(C)CC4)CC3)c(OC)c2)nc1NC1CCOCC1 [gilteritinib]"
outcome_measure = "inhibition at 1 µM"
measured_value = 94

[[record]]
compound = "FC(F)(F)c1ccc(CNc2ccc(Cc3c[nH]c4ncc(Cl)cc34)cn2)cn1 [pexidartinib]"
outcome_measure = "inhibition at 1 µM"
measured_value = 18


## Input inhibition at 1 µM lookup needed for Cc1nc(NC(=O)N2CCC[C@H]2C(N)=O)sc1-c1ccnc(C(C)(C)C(F)(F)F)c1 [alpelisib] , thanks.
## Output -13

## Input Query CO[C@]1(C(=O)N[C@@H](C)c2ccc(-n3cc(F)cn3)nc2)CC[C@H](c2nc(C)cc(Nc3cc(C)[nH]n3)n2)CC1 [pralsetinib] next
## Output 84

## Input Query C[C@H](Nc1ncnc2nc[nH]c12)c1cc2cccc(Cl)c2c(=O)n1-c1ccccc1 [duvelisib] next
## Output -12

## Input Query C[C@H]1Oc2cc(cnc2N)-c2c(nn(C)c2C#N)CN(C)C(=O)c2ccc(F)cc21 [lorlatinib] next
## Output -6

## Input Query CN1CCN(c2ccc(C(=O)Nc3n[nH]c4ccc(Cc5cc(F)cc(F)c5)cc34)c(NC3CCOCC3)c2)CC1 [entrectinib] next
## Output 86

* * *

inhibition at 1 µM reference
biological target: panel of 255 wild-type kinases (Homo sapiens); test: Kinase panel profiling at 1 µmol/L (MSA or IMAP), percentage inhibition; assay type: biochemical; settings: kinase TYK2; 1 µmol/L single concentration; read-out: %-inhibition at 1 µmol/L, TYK2
Answer with a number only, understood to be in %.

[[record]]
smiles = "Cc1cc(Nc2ncnc3ccc(NC4=NC(C)(C)CO4)cc23)ccc1Oc1ccn2ncnc2c1"
outcome_measure = "inhibition at 1 µM"
measured_value = 4.71

[[record]]
smiles = "Cn1cc(-c2cc3c(N4CCN(c5ncc([C@@](C)(N)c6ccc(F)cc6)cn5)CC4)ncnn3c2)cn1"
outcome_measure = "inhibition at 1 µM"
measured_value = 16


## Input inhibition at 1 µM lookup needed for CO[C@]1(C(=O)N[C@@H](C)c2ccc(-n3cc(F)cn3)nc2)CC[C@H](c2nc(C)cc(Nc3cc(C)[nH]n3)n2)CC1 , thanks.
## Output 91

## Input Query CCn1c(=O)c(-c2cc(NC(=O)Nc3ccccc3)c(F)cc2Br)cc2cnc(NC)cc21 next
## Output 4.46

## Input Query COc1cc2ncnc(Nc3ccc(F)c(Cl)c3)c2cc1NC(=O)/C=C/CN1CCCCC1 next
## Output 6.51

## Input Query COc1ccc(CN2C3CC2CN(c2ccc(-c4cc(OCC(C)(C)O)cn5ncc(C#N)c45)cn2)C3)cn1 next
## Output 3.39

## Input Query COC(=O)N[C@@H](C)CNc1nccc(-c2cn(C(C)C)nc2-c2cc(Cl)cc(NS(C)(=O)=O)c2F)n1 next
## Output -6

## Input Query Cn1cnc2c(F)c(Nc3ccc(Br)cc3F)c(C(=O)NOCCO)cc21 next
## Output -4
